# Read-out: Urokinase-type plasminogen activator receptor (uPAR), PLAUR (gene 5329)
# PROCEDURE DETAILS: BSK_4H_uPAR: BioMAP Diversity Plus: 4H Assay for Urokinase-type plasminogen activator receptor (uPAR) Biomarker Activity (AID 2283030)
# MEASUREMENT CONDITIONS: primary human endothelial cells (HUVEC); actives raise or lower the signal
Activity calls are given as the source filed them. How the source made its calls: active means hit-call score of the fitted dose curve at least 0.9, where 1 is the maximum; inactive means score below 0.9.
MEASURE: outcome

NC(=O)O inactive
O=C(O)C(Cl)(Cl)Cl inactive
CC(C)(OO)c1ccccc1 inactive

---

# Read-out: Plasminogen activator inhibitor-1 (PAI1), SERPINE1 (gene 5054)
# PROCEDURE DETAILS: BSK_MyoF_PAI1: BioMAP Diversity Plus: MyoF Assay for Plasminogen activator inhibitor-1 (PAI1) Biomarker Activity (AID 2284256)
# MEASUREMENT CONDITIONS: primary human lung fibroblasts
The source made the active and inactive calls. How the source made its calls: active means hit-call score of the fitted dose curve at least 0.9, where 1 is the maximum; inactive means score below 0.9.
MEASURE: AC50

COMPOUND	AC50
CC(C)c1ccc(CO)cc1	inactive
Nc1cccc2ccccc12	inactive
O=C(OC1CCCCC1)c1ccccc1C(=O)OC1CCCCC1	20.9 µM (active)
CCSC(C)CC1CC(=O)C(C(CC)=NOC/C=C/Cl)=C(O)C1 (centres undefined)	inactive
COP(=S)(OC)Oc1cc(Cl)c(Cl)cc1Cl	inactive
Nc1ccc(-c2ccc(N)c(Cl)c2)cc1Cl	inactive
BrCCBr	inactive
CCCCCCCCC(=O)NCc1ccc(O)c(OC)c1	inactive
COC(=O)c1sccc1S(=O)(=O)NC(=O)Nc1nc(C)nc(OC)n1	inactive
OCc1ccco1	inactive

[ask] Can you look up the measured AC50 of CCOP(=S)(OCC)Oc1ccc(S(C)=O)cc1 (centres undefined) for me?
[reply] inactive

---

# Read-out: C-C motif chemokine 2 (Homo sapiens) (UniProt P13500)
# PROCEDURE DETAILS: BSK_KF3CT_MCP1: BioMAP Diversity Plus: KF3CT Assay for Monocyte Chemoattractant Protein 1 (MCP1/CCL2) Biomarker Activity (AID 2283073)
# MEASUREMENT CONDITIONS: primary human keratinocytes with fibroblasts; actives raise or lower the signal
Calls of active or inactive are those of the source. Rule for the calls: active = hit-call score of the fitted dose curve at least 0.9, where 1 is the maximum; inactive = score below 0.9.
MEASURE: AC50

COMPOUND	AC50
CC12CC1(C)C(=O)N(c1cc(Cl)cc(Cl)c1)C2=O (centres undefined)	inactive
COP(=S)(OC)Oc1cc(Cl)c(Cl)cc1Cl	inactive
O=[N+]([O-])c1ccc2c3c(cccc13)CC2	inactive
Oc1ccc(-c2ccccc2)cc1	0.016 µM (active)

[ask] Can you look up the measured AC50 of CCOP(=S)(OCC)Oc1ccc(S(C)=O)cc1 (centres undefined) for me?
[reply] inactive

[ask] Same question for C(=NC1CCCCC1)=NC1CCCCC1 please.
[reply] 29.4 µM (active)

[ask] Same question for Nc1ncc([N+](=O)[O-])s1 please.
[reply] inactive

[ask] Same question for BrCCBr please.
[reply] inactive

[ask] Same question for Cc1ccccc1N please.
[reply] inactive

[ask] Same question for O=S(=O)(c1ccc(Cl)cc1)c1ccc(Cl)cc1 please.
[reply] inactive

[ask] Same question for CCOC(=O)/C=C(C)/C=C/C[C@@H](C)CCCC(C)C please.
[reply] 7.27 µM (active)

[ask] Same question for ClC(Cl)=C(Cl)C(Cl)=C(Cl)Cl please.
[reply] 20 µM (active)

[ask] Same question for CC(=O)OC(c1ccccc1)C(Cl)(Cl)Cl (centres undefined) please.
[reply] inactive

[ask] Same question for CC(C)(C)c1cc(O)ccc1O please.
[reply] 36 µM (active)

---

# Read-out: Fatty acid synthase (Homo sapiens)
# PROCEDURE DETAILS: LTEA_HepaRG_FASN: Life Technologies and Expression Analysis (LTEA) Assay for Fatty Acid Synthase (FASN) using HepaRG (AID 2283448)
# MEASUREMENT CONDITIONS: mRNA level, 48 h; actives raise or lower the signal
Calls of active or inactive are those of the source. The calls were made as follows: active = hit-call score of the fitted dose curve at least 0.9, where 1 is the maximum; inactive = score below 0.9.
Result category, one only: YES (active), NO (inactive)

Answered examples (5):
COMPOUND	ASSIGNED LABEL
C=C(C)C(=O)[O][Sn]([CH2]CCC)([CH2]CCC)[CH2]CCC	NO
CC12CC1(C)C(=O)N(c1cc(Cl)cc(Cl)c1)C2=O (stereo unspecified)	YES
Oc1cccc2cccnc12	NO
O=C(Nc1ccc2[nH]ccc2c1)c1cc2cc(F)ccc2n1Cc1cccc(F)c1	YES
O=C(O)C(Cl)(Cl)Cl	NO

[ask] State the result this test recorded for CC(C)(C)CC(C)(C)c1ccc(O)cc1 .
[reply] NO

[ask] Same question for C[C@]12CCC(=O)C[C@@H]1CC[C@@H]1[C@@H]2CC[C@]2(C)[C@@H](O)CC[C@@H]12 please.
[reply] NO

[ask] Same question for C[C@@H]1C[C@@H]([C@H](O)CC2CC(=O)NC(=O)C2)C(=O)[C@@H](C)C1 please.
[reply] YES

---

# TARGET ENTITY: Bile acid receptor (Homo sapiens) (UniProt Q96RI1)
# Sequence (Q96RI1 whole entry, looked up): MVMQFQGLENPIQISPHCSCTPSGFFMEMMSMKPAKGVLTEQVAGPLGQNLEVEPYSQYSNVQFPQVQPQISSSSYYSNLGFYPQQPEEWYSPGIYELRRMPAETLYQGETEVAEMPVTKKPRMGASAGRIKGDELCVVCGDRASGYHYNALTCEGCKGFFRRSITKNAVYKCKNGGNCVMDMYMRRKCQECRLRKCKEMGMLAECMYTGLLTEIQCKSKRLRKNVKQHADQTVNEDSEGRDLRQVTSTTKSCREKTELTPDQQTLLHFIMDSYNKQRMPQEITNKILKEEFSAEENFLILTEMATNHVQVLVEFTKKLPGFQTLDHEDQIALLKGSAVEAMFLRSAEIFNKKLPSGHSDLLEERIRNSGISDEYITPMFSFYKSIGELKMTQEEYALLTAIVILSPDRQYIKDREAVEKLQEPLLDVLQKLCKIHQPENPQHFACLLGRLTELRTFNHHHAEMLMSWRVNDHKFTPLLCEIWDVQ
# PROCEDURE DETAILS: ATG_FXR_TRANS: Attagene TRANS-FACTORIAL HepG2 Assay for Farnesoid X Receptor (FXR) (AID 2282979);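 further: hits raise reporter mRNA above DMSO so AC50 marks FXR activation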
# MEASUREMENT CONDITIONS: HepG2 Attagene TRANS FXR-GAL4 reporter transcription
Results filed as inconclusive are left out. Activity calls are given as the source filed them. How the source made its calls: active means hit-call score of the fitted dose curve at least 0.9, where 1 is the maximum; inconclusive means response in the unintended direction; inactive means score below 0.9.
Result category, one only: active, inactive

COMPOUND	ASSIGNED LABEL
CC(=O)[O][Hg][c]1ccccc1	inactive
CC(C)(c1ccccc1)c1ccc(O)c(C(C)(C)c2ccccc2)c1	inactive
CCC1(c2ccc(N)cc2)CCC(=O)NC1=O (stereo unspecified)	inactive
O=C(c1ccccc1)C(Cl)Cl	inactive

[ask] State the result this test recorded for N#CN=C(N)N .
[reply] inactive

[ask] Same question for CCC[CH2][Sn]([Cl])([Cl])[Cl] please.
[reply] inactive

[ask] Same question for CCC(C)c1cccc(C(C)CC)c1O (stereo unspecified) please.
[reply] inactive

[ask] Same question for CCOP(=S)(OCC)Oc1nc(Cl)c(Cl)cc1Cl please.
[reply] inactive

[ask] Same question for ClC1=C(Cl)[C@]2(Cl)[C@@H]3[C@@H](Cl)[C@@H](Cl)C[C@@H]3[C@@]1(Cl)C2(Cl)Cl please.
[reply] inactive

[ask] Same question for CC(=[OH+])/C=C(/C)[O-].CC(=[OH+])/C=C(/C)[O-].CC(=[OH+])/C=C(/C)[O-].[Fe] please.
[reply] inactive

[ask] Same question for CCc1ccccc1C please.
[reply] inactive

---

# Test system: SERPINA7 (gene 6906)
# PROCEDURE DETAILS: CCTE_GLTED_hTBG: CCTE's human Thyroxine-binding Globulin (TBG) Inhibition Assay, Great Lakes Toxicology and Ecology Division (GLTED) Lab (AID 2284343);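 further: active chemicals lower fluorescence versus DMSO baseline by displacing probe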
Calls of active or inactive are those of the source. Rule for the calls: active = hit-call score of the fitted dose curve at least 0.9, where 1 is the maximum; inconclusive = response in the unintended direction; inactive = score below 0.9.
Result category, one only: active, inactive

Answered examples (5):
COMPOUND	TARGET ENTITY	ASSIGNED LABEL
O=C1C2(Cl)C3(Cl)C4(Cl)C(Cl)(Cl)C5(Cl)C3(Cl)C1(Cl)C5(Cl)C24Cl (stereo unspecified)	SERPINA7 (gene 6906)	inactive
O=[N+]([O-])c1ccc(O)c([N+](=O)[O-])c1	SERPINA7 (gene 6906)	active
CCC(C)(C)c1ccc(O)c(C(C)(C)CC)c1	SERPINA7 (gene 6906)	active
Oc1ccc(-c2ccccc2)cc1	SERPINA7 (gene 6906)	active
COP(=O)(OC)O/C(=C\Cl)c1cc(Cl)c(Cl)cc1Cl	SERPINA7 (gene 6906)	active

[ask] State the result this test recorded for ClC1(Cl)C2(Cl)C3(Cl)C4(Cl)C(Cl)(Cl)C5(Cl)C3(Cl)C1(Cl)C5(Cl)C24Cl (stereo unspecified) .
[reply] inactive

[ask] Same question for CCOP(=S)(OCC)Oc1nc(Cl)c(Cl)cc1Cl please.
[reply] active

[ask] Same question for C[C@H]1CCCC(=O)CCC/C=C/c2cc(O)cc(O)c2C(=O)O1 please.
[reply] active

[ask] Same question for CC1(C)CCC(Cc2ccc(Cl)cc2)C1(O)Cn1cncn1 (stereo unspecified) please.
[reply] active

[ask] Same question for CC(C)(C)CC(C)(C)c1ccc(O)cc1 please.
[reply] active

[ask] Same question for CC(C)c1cccc(C(C)C)c1O please.
[reply] active

---

# Read-out: Tumor necrosis factor receptor 1 (TNFRSF1A), TNFRSF1A (gene 7132)
# PROCEDURE DETAILS: LTEA_HepaRG_TNFRSF1A: Life Technologies and Expression Analysis (LTEA) Assay for Tumor necrosis factor receptor 1 (TNFRSF1A) using HepaRG (AID 2283535)
# MEASUREMENT CONDITIONS: mRNA level, 48 h; actives raise or lower the signal
Calls of active or inactive are those of the source. The calls were made as follows: active = hit-call score of the fitted dose curve at least 0.9, where 1 is the maximum; inactive = score below 0.9.
Result category, one only: active, inactive

Answered examples (5):
MOLECULE	ASSIGNED LABEL
CC(=O)[O][Hg][c]1ccccc1	active
NC(=O)O	inactive
C[C@]12CCC(=O)C[C@@H]1CC[C@@H]1[C@@H]2CC[C@]2(C)[C@@H](O)CC[C@@H]12	inactive
Oc1cccc2cccnc12	inactive
CCC(=O)C(CC(C)N(C)C)(c1ccccc1)c1ccccc1 (configuration not stated)	inactive

[ask] State the result this test recorded for CN(C)N=O .
[reply] inactive

[ask] Same question for CC12CC1(C)C(=O)N(c1cc(Cl)cc(Cl)c1)C2=O (configuration not stated) please.
[reply] inactive

Data origin, for the record: PubChem BioAssay (EPA / NIEHS)
